- tested-target: Human LBAT (Homo sapiens, UniProt Q14973)
- Construct: kept under Geneticin selection
- Sequence (Q14973 1-349): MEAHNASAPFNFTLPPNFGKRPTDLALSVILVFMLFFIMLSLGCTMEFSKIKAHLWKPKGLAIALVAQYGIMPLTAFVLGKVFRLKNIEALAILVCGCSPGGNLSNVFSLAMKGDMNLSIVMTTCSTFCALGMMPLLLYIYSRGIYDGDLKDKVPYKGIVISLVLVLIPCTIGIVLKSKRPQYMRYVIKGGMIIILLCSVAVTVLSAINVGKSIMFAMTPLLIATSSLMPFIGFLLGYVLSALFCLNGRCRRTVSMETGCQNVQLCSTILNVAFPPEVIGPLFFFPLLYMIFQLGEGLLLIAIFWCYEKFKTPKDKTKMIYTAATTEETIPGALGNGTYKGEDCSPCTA
- test-name: LBAT assay, 3H-taurocholic acid uptake in human LBAT-overexpressing cells
- run-conditions: read-out: hLBAT IC50
property: log10 IC50 (log10 of the value in nM)
Heads up: the numbers are on a log10 scale; they represent IC50 in nM.

{"molecule": "CCC[C@]1(C)CN(c2ccccc2)c2cc(SC)c(O/C=C(\\F)C(=O)O)cc2S(=O)(=O)C1 (single isomer, unassigned)", "log10 IC50": 0.72}
{"molecule": "CCC[C@]1(C)CN(c2ccccc2)c2cc(SC)c(O/C=C/C(=O)O)cc2S(=O)(=O)C1 (single isomer, unassigned)", "log10 IC50": 3.02}

Prompt: Please look up its log10 IC50: CCCC1(C)CN(c2ccccc2)c2cc(SC)c(OC=CC(=O)O)cc2S(=O)(=O)C1 (single isomer, unassigned)
Response: 1.51

Prompt: Also check CCCC1(C)CN(c2ccccc2)c2cc(SC)c(O/C=C/C(=O)O)cc2S(=O)(=O)C1 (stereo not drawn)
Response: 1.82

Prompt: Continue with CCCC1(C)CN(c2ccccc2)c2cc(SC)c(O/C=C(\F)C(=O)O)cc2S(=O)(=O)C1 (stereo not drawn)
Response: 1.36

Prompt: Check CCCC[C@]1(C)CN(c2ccccc2)c2cc(SC)c(O/C=C(\F)C(=O)O)cc2S(=O)(=O)C1 (single isomer, unassigned) too.
Response: 1.24

---

- test-name: Bioavailability study in mice
- Format: in vivo
- run-conditions: male, mouse, plasma; C57BL/6 mice; 1 mg/kg intravenous, 10 mg/kg oral
property: bioavailability (%)
Field format: number, assumed %, no unit text.

Prompt: I'd like to know its bioavailability. The compound in question is CCCC[C@]1(C)CN(c2ccccc2)c2cc(SC)c(O/C=C(\F)C(=O)O)cc2S(=O)(=O)C1 (single isomer, unassigned)
Response: 15.7

---

- tested-target: Human LBAT (Homo sapiens)
- Construct: kept under Geneticin selection
- Sequence (Q14973 1-349): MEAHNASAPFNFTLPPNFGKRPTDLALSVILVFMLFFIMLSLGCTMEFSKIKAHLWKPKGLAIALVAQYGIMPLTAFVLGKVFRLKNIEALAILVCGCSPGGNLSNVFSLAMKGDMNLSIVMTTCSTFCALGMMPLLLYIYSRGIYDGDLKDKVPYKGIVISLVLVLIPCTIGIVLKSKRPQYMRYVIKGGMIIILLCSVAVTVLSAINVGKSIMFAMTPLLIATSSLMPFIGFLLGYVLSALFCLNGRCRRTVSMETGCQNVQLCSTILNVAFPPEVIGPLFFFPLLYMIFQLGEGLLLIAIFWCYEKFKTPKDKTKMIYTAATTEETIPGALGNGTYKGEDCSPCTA
- test-name: LBAT assay, 3H-taurocholic acid uptake in human LBAT-overexpressing cells
- run-conditions: read-out: hLBAT IC50
Known IC50 of a selection of compounds
Express the result in nM but write the number alone.

Prompt: Please look up its IC50: CCC1(C)CN(c2ccccc2)c2cc(SC)c(O/C=C(\F)C(=O)O)cc2S(=O)(=O)C1 (stereo not shown) [Example 10]
Response: 83

Prompt: Next: CCCC[C@@]1(C)CN(c2ccccc2)c2cc(SC)c(O/C=C(\F)C(=O)O)cc2S(=O)(=O)C1 (single isomer, unassigned) [Example 3]
Response: 9.2

Prompt: // repeat for CCCCC1(C)CN(c2ccccc2)c2cc(SC)c(O/C=C(\F)C(=O)O)cc2S(=O)(=O)C1 (stereo not shown) [Example 1] and report
Response: 14.4

Prompt: Now the same for CCC[C@@]1(C)CN(c2ccccc2)c2cc(SC)c(O/C=C(\F)C(=O)O)cc2S(=O)(=O)C1 (single isomer, unassigned) [Example 9]
Response: 56

---

- test-name: Bidirectional permeability assay (Caco-2 cells)
- Format: in vitro ADME
- run-conditions: human, Caco-2, pH 7.4, secretory direction B2A
Listing of recorded Papp B→A at 120 min, 10 µM by entry.
Report the value in ×10⁻⁶ cm/s with no unit label.

{"molecule": "CCCC[C@]1(C)CN(c2ccccc2)c2cc(SC)c(O/C=C(\\F)C(=O)O)cc2S(=O)(=O)C1 (single isomer, unassigned) [Example 2]", "Papp B→A at 120 min, 10 µM (×10⁻⁶ cm/s)": 6.6}
{"molecule": "CCCC[C@@]1(C)CN(c2ccccc2)c2cc(SC)c(O/C=C(\\F)C(=O)O)cc2S(=O)(=O)C1 (single isomer, unassigned) [Example 3]", "Papp B→A at 120 min, 10 µM (×10⁻⁶ cm/s)": 9.3}

# context switch: different molecule, same Papp B→A at 120 min, 10 µM
Prompt: Name the recorded Papp B→A at 120 min, 10 µM for CCC[C@]1(C)CN(c2ccccc2)c2cc(SC)c(O/C=C(\F)C(=O)O)cc2S(=O)(=O)C1 (single isomer, unassigned) [Example 8] .
Response: 6.2

---

- test-name: Bioavailability study in rats
- Assay type: in vivo
- run-conditions: male, Wistar, plasma; rat; 1 mg/kg intravenous, 10 mg/kg oral
property: bioavailability (%)
Numeric only. Scale: %

Prompt: What measured bioavailability goes with CCCC[C@]1(C)CN(c2ccccc2)c2cc(SC)c(O/C=C(\F)C(=O)O)cc2S(=O)(=O)C1 (single isomer, unassigned) ?
Response: 34.5

---

- test-name: Bioavailability study in mice
- Type: in vivo
- run-conditions: male, mouse, plasma; CD1 mice; 1 mg/kg intravenous, 10 mg/kg oral
property: bioavailability

Prompt: Request the reported bioavailability associated with CCCC[C@]1(C)CN(c2ccccc2)c2cc(SC)c(O/C=C(\F)C(=O)O)cc2S(=O)(=O)C1 (single isomer, unassigned)
Response: 32.1 to 55.7%

---

- test-name: Bidirectional permeability assay (Caco-2 cells)
- Type: in vitro ADME
- run-conditions: human, Caco-2, pH 7.4, absorptive direction A2B
Below: a set of entries, each annotated with reported Papp A→B at 120 min, 10 µM.
Use ×10⁻⁶ cm/s as the unit, but write only the number.

{"compound": "CCCC[C@]1(C)CN(c2ccccc2)c2cc(SC)c(O/C=C(\\F)C(=O)O)cc2S(=O)(=O)C1 (single isomer, unassigned) [Example 2]", "measurement": 3.6}
{"compound": "CCC[C@]1(C)CN(c2ccccc2)c2cc(SC)c(O/C=C(\\F)C(=O)O)cc2S(=O)(=O)C1 (single isomer, unassigned) [Example 8]", "measurement": 3.6}

Now take the following compound into account.
Prompt: Any idea what Papp A→B at 120 min, 10 µM was measured for CCCC[C@@]1(C)CN(c2ccccc2)c2cc(SC)c(O/C=C(\F)C(=O)O)cc2S(=O)(=O)C1 (single isomer, unassigned) [Example 3] ?
Response: 3.6

---

- tested-target: Human IBAT (Homo sapiens)
- Construct: kept under Puromycin selection
- test-name: IBAT assay, 3H-taurocholic acid uptake in human IBAT-overexpressing cells
- run-conditions: read-out: hIBAT IC50
Entries and their measured IC50 follow.
The figure you give is taken to be in nM; do not add the unit.

Take a look at these entries with their results.
{"compound": "CCCC[C@]1(C)CN(c2ccccc2)c2cc(SC)c(O/C=C(\\F)C(=O)O)cc2S(=O)(=O)C1 (single isomer, unassigned)", "measurement": 22.7}
{"compound": "CCCC[C@@]1(C)CN(c2ccccc2)c2cc(SC)c(O/C=C(\\F)C(=O)O)cc2S(=O)(=O)C1 (single isomer, unassigned)", "measurement": 735}
{"compound": "CCCC1(C)CN(c2ccccc2)c2cc(SC)c(O/C=C(\\F)C(=O)O)cc2S(=O)(=O)C1 (stereo not drawn)", "measurement": 435}

Prompt: Item CCC[C@]1(C)CN(c2ccccc2)c2cc(SC)c(O/C=C/C(=O)O)cc2S(=O)(=O)C1 (single isomer, unassigned) has what recorded IC50?
Response: 678

Prompt: Entry CCCCC1(C)CN(c2ccccc2)c2cc(SC)c(O/C=C(\F)C(=O)O)cc2S(=O)(=O)C1 (stereo not drawn) please
Response: 23.7

---

IC50: recorded values
- tested-target: Human IBAT (Homo sapiens, UniProt Q12908)
- Construct: kept under Puromycin selection
- Sequence (Q12908 whole entry): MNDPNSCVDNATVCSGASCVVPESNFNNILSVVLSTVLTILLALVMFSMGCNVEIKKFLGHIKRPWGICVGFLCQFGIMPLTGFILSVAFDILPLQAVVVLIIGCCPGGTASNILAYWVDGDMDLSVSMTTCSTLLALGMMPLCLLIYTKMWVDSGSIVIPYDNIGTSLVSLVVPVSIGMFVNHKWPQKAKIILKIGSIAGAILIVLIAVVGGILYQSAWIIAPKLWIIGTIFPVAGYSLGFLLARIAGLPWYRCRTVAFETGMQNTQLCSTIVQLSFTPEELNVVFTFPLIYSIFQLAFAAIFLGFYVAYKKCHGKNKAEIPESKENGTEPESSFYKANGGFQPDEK
- test-name: IBAT assay, 3H-taurocholic acid uptake in human IBAT-overexpressing cells
- run-conditions: read-out: hIBAT IC50
Numeric only. Scale: nM

Prompt: What IC50 value was documented for this compound, CCC[C@@]1(C)CN(c2ccccc2)c2cc(SC)c(O/C=C(\F)C(=O)O)cc2S(=O)(=O)C1 (single isomer, unassigned) ?
Response: 186

Prompt: Another compound: CCC1(C)CN(c2ccccc2)c2cc(SC)c(O/C=C(\F)C(=O)O)cc2S(=O)(=O)C1 (stereo not shown)
Response: 906

Prompt: And CCC[C@]1(C)CN(c2ccccc2)c2cc(SC)c(O/C=C(\F)C(=O)O)cc2S(=O)(=O)C1 (single isomer, unassigned) ?
Response: 465

Prompt: Then this compound: CCCC1(C)CN(c2ccccc2)c2cc(SC)c(O/C=C/C(=O)O)cc2S(=O)(=O)C1 (stereo not shown)
Response: 564
